Experimental target: NLRP3 (Homo sapiens)
Construct: Measurement of IL-1β Production in PMA-Differentiated THP-1 Cells
Experiment summary: Measurement of IL-1β production in PMA-differentiated THP-1 cells (NLRP3 hIL1β)
Property: EC50 (nM)

Below are worked cases with known answers.
Chem smiles: Nc1nc(NCCc2ccccn2)c2ncc(-c3cc[nH]n3)cc2n1
Test result: 690

Chem smiles: Nc1cc(N[C@H]2CC[C@H](O)C2)c2ccc(-c3cc[nH]n3)nc2n1
Test result: 1600

(A) Nc1cc(NCc2cccnn2)c2ccc(-c3cc[nH]n3)nc2n1
(B) Nc1cc(NCc2cccnn2)c2ncc(-c3ccn[nH]3)cc2n1
(C) Nc1nc(N[C@@H]2CCOC2)c2ncc(-c3cc[nH]n3)cc2n1
(D) Nc1cc(N[C@H]2C[C@H](O)C2)c2ncc(-c3ccn[nH]3)cc2n1
Incoming: Reorder the items by EC50, least to greatest. Use the labels to give the ranking in the order requested.
Outgoing: D, B, A, C

###

Experimental target: NLRP3 (Homo sapiens, UniProt Q96P20)
Construct: Measurement of IL-1β Production in PMA-Differentiated THP-1 Cells
Sequence (Q96P20 whole entry): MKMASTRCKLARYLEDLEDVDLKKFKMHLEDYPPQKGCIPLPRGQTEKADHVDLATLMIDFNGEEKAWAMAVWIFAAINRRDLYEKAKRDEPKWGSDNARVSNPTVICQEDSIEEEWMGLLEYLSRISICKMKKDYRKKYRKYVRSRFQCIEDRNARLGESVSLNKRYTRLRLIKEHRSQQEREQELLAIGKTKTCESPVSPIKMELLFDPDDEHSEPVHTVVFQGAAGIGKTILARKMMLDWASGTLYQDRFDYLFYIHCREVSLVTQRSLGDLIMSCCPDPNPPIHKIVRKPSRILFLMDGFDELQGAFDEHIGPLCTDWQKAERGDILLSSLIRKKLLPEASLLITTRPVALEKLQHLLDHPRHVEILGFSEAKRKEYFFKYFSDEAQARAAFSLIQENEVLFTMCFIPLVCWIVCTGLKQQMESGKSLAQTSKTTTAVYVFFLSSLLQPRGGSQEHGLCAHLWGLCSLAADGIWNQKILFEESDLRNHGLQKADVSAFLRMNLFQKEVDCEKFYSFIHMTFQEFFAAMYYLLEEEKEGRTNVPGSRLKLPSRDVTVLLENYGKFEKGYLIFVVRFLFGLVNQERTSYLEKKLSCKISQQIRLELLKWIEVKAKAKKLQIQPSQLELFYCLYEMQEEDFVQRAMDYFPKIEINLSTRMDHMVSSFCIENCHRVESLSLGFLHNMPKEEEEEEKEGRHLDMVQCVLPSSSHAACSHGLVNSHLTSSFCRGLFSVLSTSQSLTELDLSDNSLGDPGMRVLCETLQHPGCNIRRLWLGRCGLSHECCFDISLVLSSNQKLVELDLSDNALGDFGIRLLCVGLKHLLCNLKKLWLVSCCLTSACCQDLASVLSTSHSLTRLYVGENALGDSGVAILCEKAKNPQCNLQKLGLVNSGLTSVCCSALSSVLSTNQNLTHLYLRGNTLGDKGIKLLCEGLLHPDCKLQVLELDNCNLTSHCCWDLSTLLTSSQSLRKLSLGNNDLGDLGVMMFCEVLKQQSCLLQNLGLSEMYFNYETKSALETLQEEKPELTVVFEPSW
Experiment summary: Measurement of IL-1β production in PMA-differentiated THP-1 cells (NLRP3 hIL1β)
Method: Measurement of IL-1β Production in PMA-Differentiated THP-1 Cells (§1) THP-1 cells were purchased from the American Type Culture Collection and sub-cultured according to instructions from the supplier. […] Cell free supernatant was collected and the production of IL-1β was evaluated by ELISA. […] as §1
pEC50: −log10 of the molar value.
Property: pEC50

Below are worked cases with known answers.
Chem smiles: Nc1cc(NCCO)c2ncc(-c3ccn[nH]3)cc2n1
pEC50: 6.51

Chem smiles: Nc1cc(N[C@@H]2CCOC2)c2ncc(-c3ccn[nH]3)cc2n1
pEC50: 5.59

Chem smiles: Nc1cc(N[C@H]2CCOC2)c2cnc(-c3cc[nH]n3)cc2n1
pEC50: 5.77

(1) Nc1cc(N[C@@H]2CC[C@@H](O)C2)c2ncc(-c3ccn[nH]3)cc2n1
(2) Nc1nc(N[C@H]2CC[C@H](O)C2)c2ccc(-c3ccn[nH]3)nc2n1
(3) Nc1cc(NCCCO)c2cnc(-c3cc[nH]n3)cc2n1
(4) C[C@H](O)CNc1cc(N)nc2cc(-c3ccn[nH]3)cnc12
(5) Nc1cc(N[C@H]2CC[C@H](O)C2)c2cnc(-c3ccn[nH]3)cc2n1
Incoming: # sort list by recorded pEC50, greatest to least Use the labels to give the ranking in the order requested.
Outgoing: 4, 1, 3, 2, 5

###

Experimental target: NLRP3 (Homo sapiens)
Construct: Measurement of IL-1β Production in PMA-Differentiated THP-1 Cells
Experiment summary: Measurement of IL-1β production in PMA-differentiated THP-1 cells (NLRP3 hIL1β)
Method: Measurement of IL-1β Production in PMA-Differentiated THP-1 Cells (§1) THP-1 cells were purchased from the American Type Culture Collection and sub-cultured according to instructions from the supplier. […] Cell free supernatant was collected and the production of IL-1β was evaluated by ELISA. […] as §1
Property: EC50 (nM)

(A) Nc1nc(NCc2cncnc2)c2ncc(-c3cc[nH]n3)cc2n1 [Example 18]
(B) Nc1cc(N[C@H]2CCOC2)c2ccc(-c3cc[nH]n3)nc2n1 [Example 10]
(C) Nc1cc(N[C@H]2CC[C@H](O)C2)c2ncc(-c3ccn[nH]3)cc2n1 [Example 4]
(D) C[C@@H](O)CNc1cc(N)nc2cc(-c3ccn[nH]3)cnc12 [Example 25]
Incoming: Sort the items above on EC50, descending. Use the labels to give the ranking in the order requested.
Outgoing: C, A, B, D
(C: 3500 nM, A: 2000 nM, B: 930 nM, D: 80 nM)

(A) Nc1cc(-c2cc[nH]n2)c2ncc(-c3ccn[nH]3)cc2n1 [Example 5]
(B) Nc1nc(NCCO)c2ncc(-c3cc[nH]n3)cc2n1 [Example 20]
Incoming: Higher EC50: A or B ? Label of pick, please.
Outgoing: B
(B: 1900 nM, A: 860 nM)

###

Experimental target: NLRP3 (Homo sapiens, UniProt Q96P20)
Construct: Measurement of IL-1β Production in PMA-Differentiated THP-1 Cells
Experiment summary: Measurement of IL-1β production in PMA-differentiated THP-1 cells (NLRP3 hIL1β)
Property: EC50 (nM)

Chem smiles: Nc1cc(NCc2cc[nH]n2)c2ncc(-c3ccn[nH]3)cc2n1
Test result: 280
--
Chem smiles: Nc1nc(NCCCO)c2ncc(-c3cc[nH]n3)cc2n1
Test result: 830

(a) Nc1nc(N2CCCOCC2)c2ncc(-c3cc[nH]n3)cc2n1
(b) Nc1cc(NCCCO)c2ccc(-c3cc[nH]n3)nc2n1
Incoming: Of a and b , which carries the smaller reported EC50 figure? Label of pick, please.
Outgoing: a
